IC50, Nitric oxide synthase 1 (Homo sapiens), per-entry values.
Property: IC50 (nM)

Some molecules with recorded IC50:
> print(dat)
                molecule  data.value
1          Cc1ccc(N)nc1C        2200
2   Cc1cc(N)nc(CC(C)C)c1         100
3          Cc1cnc(N)cc1C         340
4             Cc1cccnc1N        1300
5        Nc1nccc2c1CCCC2       11000
6  N=C(N)NN [PIMAGEDINE]      118000

(a) Cc1cc(N)nc(CCC(C)C)c1
(b) Cc1cnc(N)c(C)c1
(c) Cc1cc(N)nc(CCCc2ccccc2)c1
Prompt line: Ascending by IC50, please. Present the labels in the sequence the task asks for.
Response line: a, b, c
(a: 510 nM, b: 2000 nM, c: 3300 nM)
